Values compiled from paper PMC5362268.

- protocolDescription: Pharmacokinetic analysis in mice
- Format: in vivo, mouse
- reportedConditions: male, C57BL/6, mouse, plasma, po, 20 mg/kg
assayMetric: AUC(0-inf) (ng·h/mL)

compound: NC1(C(=O)NCCCn2cc(-c3ccc(OC(F)(F)F)cc3)c3cc(CN4CCN(Cc5c(Cl)cccc5Cl)CC4)ccc32)CCNCC1 [compound 3144]
readoutNumber: 5650

###

- experimentalTarget: KRAS^G12D-GppNHp (Homo sapiens, UniProt P01116, G12D)
- protocolDescription: Isothermal titration calorimetry
assayMetric: Kd (µM)

compound: NC1(C(=O)NCCCn2cc(-c3ccc(OC(F)(F)F)cc3)c3cc(CN4CCN(Cc5c(Cl)cccc5Cl)CC4)ccc32)CCNCC1 [compound 3144]
assayMetric: Kd
readoutNumber: 17.8

###

- protocolDescription: Solubility of compound 3144
- Format: physicochemical
- reportedConditions: aqueous solutions, aqueous buffer, kinetic from dmso stock

compoundStructureString: NC1(C(=O)NCCCn2cc(-c3ccc(OC(F)(F)F)cc3)c3cc(CN4CCN(Cc5c(Cl)cccc5Cl)CC4)ccc32)CCNCC1
solubility (µM): 5
